Test system: MALME-3M melanoma
Assay: NCI tumour cell line growth inhibition, 48 h
Reported TGI values follow for various compounds
Write it as a number; the unit µM goes unstated.

// below: answered compounds
COC(=O)c1c2c(c(C)[n+]([O-])c1C)C(=O)C(NCc1ccccc1)=CC2=O: 1.88
COc1ccc(-c2cnc(-c3ccc(OC)cc3)n2-c2cc(OC)c(OC)c(OC)c2)cc1: 30.6
C[C@]12Cc3conc3C(O)=C1CC[C@@H]1C2CC[C@@]2(C)C1CC[C@@H]2O (some centres not stated): 87.2
COc1cc2c(cc1OC)[C@@H]1C(=O)c3ccc4c(c3O[C@@H]1CO2)C[C@H](C(C)C)O4: 53.2
COC(=O)CCc1n(Cc2ccc3ccccc3c2)c2ccccc2[n+]1Cc1ccc2ccccc2c1: 2.63

Task: Lab note: need TGI with MALME-3M melanoma for entry C=C(CN(C)C)C(=O)c1ccccc1OC , please look it up.
Result: 16.5

Task: Lab note: need TGI with MALME-3M melanoma for entry Cc1[nH]c(C(=O)Nc2ccc(C(=O)NCCN)cc2OC(C)C)c(Cl)c1Cl , please look it up.
Result: 3.19

Task: Lab note: need TGI with MALME-3M melanoma for entry COc1ccccc1NC1Oc2cc3c(cc2C(c2cc(OC)c(OC)c(OC)c2)C1C)OCO3 (configuration not stated) , please look it up.
Result: 9.43

Task: Lab note: need TGI with MALME-3M melanoma for entry CCOC(=O)c1ccc(N2NC(=O)/C(=C/c3ccc([N+](=O)[O-])o3)C2=O)cc1 , please look it up.
Result: 35.1

Task: Lab note: need TGI with MALME-3M melanoma for entry Cn1cnc([N+](=O)[O-])c1S(=O)(=O)Oc1ccc(Cl)cc1 , please look it up.
Result: 4.15

Task: Lab note: need TGI with MALME-3M melanoma for entry CCOC(=O)c1c(CN2CCNCC2)nc2ccc(Cl)cc2c1-c1ccccc1 , please look it up.
Result: 3.56

* * *

System: MALME-3M melanoma
Experiment: NCI tumour cell line growth inhibition, 48 h
Test Readout: TGI

// below: answered molecules
Clc1cc(Br)ccc1-c1ccc(CNCC2CCNCC2)o1: 4.11 µM
NC(=O)c1ncn(C2C=CC(CP(=O)(O)O)C2)c1N (stereo not drawn): > 100 µM

Task: Lab note: need TGI with MALME-3M melanoma for entry Cc1cc(C)c(/C=C2\C(=O)Nc3ccccc32)[nH]1 , please look it up.
Result: > 100 µM

* * *

Reported TGI values follow for various compounds
System: EKVX NSCLC
Test: NCI tumour cell line growth inhibition, 48 h
Write it as a number; the unit µM goes unstated.

O=C1N[C@H]2C(=O)c3c(Br)sc(Br)c3[C@H]2O1: 13
c1cc(OCCN2CCCC2)ccc1CNc1ccc2nc(CCC3CCCCC3)[nH]c2c1: 6.51
O=S(=O)(CC(Cl)c1ccccc1)c1nc2ccccc2s1 (stereo not given): 35.4
Cn1cnc([N+](=O)[O-])c1S(=O)(=O)Oc1ccc(Cl)cc1: 49.6

Task: Which measured TGI value corresponds to COc1cccc(/C=C2\CCC(CN(C)C)C2=O)c1 (stereo not given) ?
Result: 42.1

* * *

Tested on: SR leukemia
Assay: NCI tumour cell line growth inhibition, 48 h
Reported TGI values follow for various compounds

Task: Lab note: need TGI with SR leukemia for entry CCc1cc2c(c(OCC(F)(F)F)c(C(=O)NC3CCN(C(=O)CO)CC3)n2C)c(=O)n1CC(=O)c1ccccc1 , please look it up.
Result: > 100 µM

Task: Lab note: need TGI with SR leukemia for entry O=C(Nc1ccc(Cl)c(C(F)(F)F)c1)Nc1ccc(-c2cccnc2)cc1N1CCC(CO)CC1 , please look it up.
Result: > 100 µM

Task: Lab note: need TGI with SR leukemia for entry O=C(Nc1ccc(I)cc1F)c1cc(Br)ccc1O , please look it up.
Result: > 100 µM

* * *

Reported TGI values follow for various molecules
Test system: M19-MEL melanoma
Assay: NCI tumour cell line growth inhibition, 48 h

// below: answered molecules
CCOc1ccc(N(CC(=O)N2CC(=O)Nc3cc(C)c(C)cc32)C(C)=O)cc1: > 100 µM
O=C1CCC2(c3ccc(Cl)cc3)Nc3ccccc3N12 (centres undefined): > 100 µM

Task: Which measured TGI value corresponds to CCCCCCCCCCCCCCCCc1c(C(=O)OC)nc(NC#N)[nH]c1=O ?
Result: > 25 µM

Task: Which measured TGI value corresponds to CC1(C)C(=O)/C=C\C(=O)C(C)(C)C2=CC=C(O2)C(C)(C)C(=O)C(Br)C(Br)C(=O)C(C)(C)C2=CC=C1O2 (centres undefined) ?
Result: > 100 µM

Task: Which measured TGI value corresponds to O=CN/C=C/c1ccccc1 ?
Result: > 100 µM

Task: Which measured TGI value corresponds to O=S1Nc2cccc(C(F)(F)F)c2S1 (centres undefined) ?
Result: > 100 µM

Task: Which measured TGI value corresponds to C=CC12CCCCC1CC(C(=O)OC)=C(O)C2 (centres undefined) ?
Result: > 100 µM

Task: Which measured TGI value corresponds to CCOC(=O)NC(=O)c1cn(CCSCCOC(=O)NCCCCCCNC(=O)OCCSCCn2cc(C(=O)NC(=O)OCC)c(=O)n(C)c2=O)c(=O)n(C)c1=O ?
Result: 51.3 µM

Task: Which measured TGI value corresponds to C[C@]12Cc3conc3C(O)=C1CC[C@@H]1C2CC[C@@]2(C)C1CC[C@@H]2O (some centres undefined) ?
Result: 74.5 µM

Task: Which measured TGI value corresponds to O=C1/C(=C/c2ccccc2Cl)COc2ccc(Br)cc21 ?
Result: > 100 µM

Task: Which measured TGI value corresponds to Cc1nc2ccccc2c(=O)n1/N=C(\N=Nc1ccccc1)c1ccccc1Cl ?
Result: > 100 µM

Task: Which measured TGI value corresponds to COc1cccc(C2=NC(C(C)C)CO2)c1OC (centres undefined) ?
Result: > 100 µM

Task: Which measured TGI value corresponds to C=C(C)CC(C(=O)O)c1ccc(C)cc1 (centres undefined) ?
Result: > 100 µM

* * *

Test system: ACHN renal
Test: NCI tumour cell line growth inhibition, 48 h
Where a SMILES comes first, the peptide text is derived from it. [ ]: non-standard residue; d: D form. The star is where a group is joined. ξ: configuration not given here. ξD = NC(CC(=O)O)C(=O)O; Boc = CC(C)(C)OC(=O)*; Aib = CC(C)(N)C(=O)O; OBn = c1ccc(CO*)cc1
Reported TGI values follow for various compounds

// below: answered compounds
O=C(N/C(=C\c1ccccc1)c1nc2ccccc2c(=O)o1)c1ccccc1: > 100 µM
O=C(Nc1ccc(Cl)c(C(F)(F)F)c1)Nc1ccc(-c2cccnc2)cc1N1CCC(CO)CC1: > 100 µM
N#Cc1c(-c2ccc([N+](=O)[O-])cc2)c2c([nH]c1=O)-c1ccccc1CCC2: > 100 µM
CCOC(=O)c1ccc(N2NC(=O)/C(=C/c3ccc([N+](=O)[O-])o3)C2=O)cc1: 20.8 µM

Shifting focus to the compound that follows.
Task: Which measured TGI value corresponds to CC(C)(C)OC(=O)NC(CC(=O)OCc1ccccc1)C(=O)NC(C)(C)C(N)=O (stereo not given) (Boc-[ξD](OBn)-[Aib]-NH2) ?
Result: > 100 µM

* * *

Test system: BT-549 breast
Test: NCI tumour cell line growth inhibition, 48 h
Label Satisfied when TGI is at or above 30 µM; otherwise label Not satisfied.

Task: Could you tell me if the measured TGI of CC(C(=O)NCNC(=O)c1ccccc1)C(=O)Nc1ccccc1 (centres undefined) reaches 30 µM or more?
Result: Satisfied

Task: Could you tell me if the measured TGI of Cc1ccc(/C(=N/NS(=O)(=O)c2cc(C)c(Cl)cc2Cl)Sc2cc(Cl)c(C)cc2S(N)(=O)=O)cc1 reaches 30 µM or more?
Result: Satisfied

Task: Could you tell me if the measured TGI of CCCCN(CCCC)P(=O)(Oc1ccccc1)Oc1ccccc1 reaches 30 µM or more?
Result: Not satisfied

Task: Could you tell me if the measured TGI of c1ccc(/C(=N\Nc2nc3ccccc3[nH]2)c2ccccn2)cc1 reaches 30 µM or more?
Result: Not satisfied

Task: Could you tell me if the measured TGI of Cc1cc(C)c2c(=O)n(CC(O)CN(Cc3ccccc3)CC(O)Cn3sc4nc(C)cc(C)c4c3=O)sc2n1 (centres undefined) reaches 30 µM or more?
Result: Satisfied

Task: Could you tell me if the measured TGI of COc1ccc(-c2cnc(-c3ccc(OC)cc3)n2-c2cc(OC)c(OC)c(OC)c2)cc1 reaches 30 µM or more?
Result: Satisfied

* * *

Tested on: TK-10 renal
Test: NCI tumour cell line growth inhibition, 48 h
Where a SMILES comes first, the peptide text is derived from it. [ ]: non-standard residue; d: D form. The star is where a group is joined. ξ: configuration not given here. ξD = NC(CC(=O)O)C(=O)O; Boc = CC(C)(C)OC(=O)*; Aib = CC(C)(N)C(=O)O; OBn = c1ccc(CO*)cc1
Test Readout: TGI

// below: answered molecules
OCC1OC(N2C=C(c3nc4ccccc4s3)C3C=CC=CC32)C(O)C(O)C1O (stereo unspecified): 32 µM
CC(C)(C)OC(=O)NC(CC(=O)OCc1ccccc1)C(=O)NC(C)(C)C(N)=O (stereo unspecified) (Boc-[ξD](OBn)-[Aib]-NH2): > 100 µM
COc1ccc2c(=O)c3ccoc3[nH]c2c1: > 100 µM
Nc1nc(-c2cccnc2)cc(-c2cc(-c3cccnc3)nc(N)n2)n1: > 100 µM

Task: Which measured TGI value corresponds to CC(=O)N1c2ccccc2N(C(C)=O)C1c1ccc(C2N(C(C)=O)c3ccccc3N2C(C)=O)[nH]1 ?
Result: > 100 µM

Task: Which measured TGI value corresponds to CCCCCCOC(=O)CC1=C(C)/C(=C/c2[nH]c(-c3ccc[nH]3)cc2OC)N=C1C ?
Result: 1.38 µM

Task: Which measured TGI value corresponds to C=CC12CCCCC1CC(C(=O)OC)=C(O)C2 (stereo unspecified) ?
Result: > 100 µM

Task: Which measured TGI value corresponds to CN(C)CC1(C)CC/C(=C\c2ccc(Cl)cc2)C1=O (stereo unspecified) ?
Result: > 100 µM

Task: Which measured TGI value corresponds to O=C(/C=C/c1ccc([N+](=O)[O-])cc1)N1CCN(CCOC(c2ccc(F)cc2)c2ccc(F)cc2)CC1 ?
Result: > 100 µM
